# MEASURED ON: human Kv1.5 (Homo sapiens, UniProt P22460)
# Construct: expressed in transfected cells
# Sequence (P22460 whole entry): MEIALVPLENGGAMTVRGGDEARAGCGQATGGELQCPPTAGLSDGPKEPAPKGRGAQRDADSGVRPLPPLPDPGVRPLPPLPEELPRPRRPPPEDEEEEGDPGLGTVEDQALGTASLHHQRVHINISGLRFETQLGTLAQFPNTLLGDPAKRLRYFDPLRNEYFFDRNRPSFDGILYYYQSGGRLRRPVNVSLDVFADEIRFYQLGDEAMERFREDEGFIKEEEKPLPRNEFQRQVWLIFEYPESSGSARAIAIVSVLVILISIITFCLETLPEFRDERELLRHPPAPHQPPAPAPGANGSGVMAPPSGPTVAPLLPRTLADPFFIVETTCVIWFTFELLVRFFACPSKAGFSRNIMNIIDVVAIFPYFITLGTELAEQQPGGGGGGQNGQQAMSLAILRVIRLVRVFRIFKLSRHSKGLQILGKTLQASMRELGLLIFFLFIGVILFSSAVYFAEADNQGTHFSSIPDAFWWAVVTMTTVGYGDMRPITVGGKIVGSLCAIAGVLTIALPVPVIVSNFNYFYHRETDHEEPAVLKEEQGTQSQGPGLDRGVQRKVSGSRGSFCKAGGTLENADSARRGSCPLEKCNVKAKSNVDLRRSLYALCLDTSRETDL
# PROCEDURE DETAILS: Kv1.5 whole cell patch electrophysiology (AutoPatch / conventional)
# Type: cell-based
# EXPERIMENTAL PARAMETERS: 1 μM compound; cells stably transfected with human Kv1.5; whole cell mode; room temperature
RESULT TYPE: inhibition at 1 µM (%)
Entry rule: numbers only, all in %.

What does the data say about its inhibition at 1 µM? Entry: `OCCc1cc(NCc2ccccn2)c2c(-c3ccccc3)csc2n1` 94

Using the record for `Fc1ccc(-c2csc3nccc(NCc4ccccn4)c23)cc1` , report its inhibition at 1 µM. 20

Look up inhibition at 1 µM for this molecule: `Cc1cccc(CNc2cc(NCCO)nc3scc(-c4ccc(F)cc4)c23)n1` 31

Quick check: inhibition at 1 µM of `Cc1cccc(CNc2ccnc3scc(-c4ccc(F)cc4)c23)n1` ? 36

Using the record for `c1ccc(-c2csc3nccc(NCc4ccccn4)c23)cc1` , report its inhibition at 1 µM. 62

Given `OCCNc1cc(NCc2ccccn2)c2c(-c3ccc(F)cc3)csc2n1` , state its recorded inhibition at 1 µM. 55

Any idea what inhibition at 1 µM was measured for `Cc1cccc(CNc2cc(N(CCO)CCO)nc3scc(-c4ccc(F)cc4)c23)n1` ? 21

Reported inhibition at 1 µM for `Fc1ccc(-c2csc3nc(Cl)cc(NCc4ccccn4)c23)cc1` : what is it? 59

Which inhibition at 1 µM value is on record for `OCCN(CCO)c1cc(NCc2ccccn2)c2c(-c3ccccc3)csc2n1` ? 81

----------
# MEASURED ON: human Kv1.5 (Homo sapiens)
# Construct: expressed in transfected cells
# PROCEDURE DETAILS: Kv1.5 whole cell patch electrophysiology (AutoPatch / conventional)
# Type: cell-based
# EXPERIMENTAL PARAMETERS: 1 μM compound; cells stably transfected with human Kv1.5; whole cell mode; room temperature
# Procedure: Kv1.5 Autopatch Electrophysiology Method Cells stably transfected with cDNA for human Kv1.5 (in pEF6::VA-His-TOPO) were grown in Dulbecco's Modified Eagle media (DMEM) alpha supplemented with 10% Fetal Calf Serum (FCS), 20 μl/ml penicillin (5000 U/ml) streptomycin (5000 μg/ml), 10 μl/ml [100×] glutamine, and blasticidin (7.5 μg/ml). Compounds were tested on these cells using the AutoPatch technology in whole cell mode. […]
inhibition at 1 µM vs 90%: at or above is met, below is not met.

Decide: inhibition at 1 µM of `Clc1cc(NCc2ccccn2)nc2scc(-c3ccccc3)c12` >= 90%? met

Exam item: decide whether the reported inhibition at 1 µM for `Cc1cccc(CNc2cc(Cl)nc3scc(-c4ccc(F)cc4)c23)n1` is at least 90%. met

Determine whether measured inhibition at 1 µM meets or exceeds 90% for `OCCNc1cc(NCc2ccccn2)c2c(-c3ccccc3)csc2n1` not met

Say whether `OCC(CO)c1cc(NCc2ccccn2)c2c(-c3ccccc3)csc2n1` shows inhibition at 1 µM of 90% or more. not met

----------
So I've got a bunch of compounds here, and I need their inhibition at 1 µM values.
# MEASURED ON: human Kv1.3 (Homo sapiens)
# Construct: expressed in transfected cells
# Sequence (P22001 whole entry): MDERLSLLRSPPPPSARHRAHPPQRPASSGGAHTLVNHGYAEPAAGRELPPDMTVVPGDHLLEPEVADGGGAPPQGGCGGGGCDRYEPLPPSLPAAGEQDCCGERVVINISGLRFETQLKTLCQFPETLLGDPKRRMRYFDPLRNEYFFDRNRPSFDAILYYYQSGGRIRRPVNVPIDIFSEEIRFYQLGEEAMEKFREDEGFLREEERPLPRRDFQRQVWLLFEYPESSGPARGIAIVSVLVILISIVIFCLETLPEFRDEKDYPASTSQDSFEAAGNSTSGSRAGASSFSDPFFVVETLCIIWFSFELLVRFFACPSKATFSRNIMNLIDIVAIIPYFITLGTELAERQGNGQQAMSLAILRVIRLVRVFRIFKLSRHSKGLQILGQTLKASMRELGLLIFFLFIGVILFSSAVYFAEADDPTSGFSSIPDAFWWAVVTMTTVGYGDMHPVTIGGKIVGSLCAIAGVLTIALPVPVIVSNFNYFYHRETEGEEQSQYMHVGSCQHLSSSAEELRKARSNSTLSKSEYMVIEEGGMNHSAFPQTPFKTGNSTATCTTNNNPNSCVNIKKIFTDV
# PROCEDURE DETAILS: Kv1.3 whole cell patch electrophysiology (AutoPatch / conventional)
# Assay type: cell-based
# EXPERIMENTAL PARAMETERS: 1 μM compound; cells stably transfected with human Kv1.3; whole cell mode; room temperature
Numbers only; they are read as %.

Given the entry `OCCc1cc(NCc2ccccn2)c2c(-c3ccccc3)csc2n1` , report its measured inhibition at 1 µM. 20

Requested field: inhibition at 1 µM. Item: `OCCNc1cc(NCc2ccccn2)c2c(-c3ccc(F)cc3)csc2n1` 72

Name the recorded inhibition at 1 µM for `c1ccc(-c2csc3nccc(NCc4ccccn4)c23)cc1` . 45

Which value of inhibition at 1 µM has been reported for `Cc1cccc(CNc2ccnc3scc(-c4ccc(F)cc4)c23)n1` in the records? 30

Quick one: inhibition at 1 µM for `Cc1cccc(CNc2cc(Cl)nc3scc(-c4ccc(F)cc4)c23)n1` ? 78

Data request, read-out inhibition at 1 µM, for `OCCN(CCO)c1cc(NCc2ccccn2)c2c(-c3ccc(F)cc3)csc2n1` 45

----------
# MEASURED ON: human Kv1.3 (Homo sapiens)
# Construct: expressed in transfected cells
# PROCEDURE DETAILS: Kv1.3 whole cell patch electrophysiology (AutoPatch / conventional)
# Format: cell-based
# EXPERIMENTAL PARAMETERS: 1 μM compound; cells stably transfected with human Kv1.3; whole cell mode; room temperature
RESULT TYPE: inhibition at 1 µM (%)
Give the number; % is assumed, so skip it.

Need inhibition at 1 µM, item `OCCN(CCO)c1cc(NCc2ccccn2)c2c(-c3ccccc3)csc2n1` 82

I'd like to know its inhibition at 1 µM. The molecule in question is `Clc1cc(NCc2ccccn2)nc2scc(-c3ccccc3)c12` 99

Bench note: what inhibition at 1 µM did `Fc1ccc(-c2csc3nc(Cl)cc(NCc4ccccn4)c23)cc1` show? 71

Consider the molecule shown here: `Clc1cc(NCc2ccccn2)c2c(-c3ccccc3)csc2n1` What is its recorded inhibition at 1 µM? 72

Fill in: inhibition at 1 µM of `Cc1cccc(CNc2cc(N(CCO)CCO)nc3scc(-c4ccc(F)cc4)c23)n1` is ___ 20

Look up inhibition at 1 µM: `Cc1cccc(CNc2cc(NCCO)nc3scc(-c4ccc(F)cc4)c23)n1` 62

inhibition at 1 µM lookup needed for `OCC(CO)c1cc(NCc2ccccn2)c2c(-c3ccccc3)csc2n1` , thanks. 8

// inhibition at 1 µM lookup, key: `Fc1ccc(-c2csc3nccc(NCc4ccccn4)c23)cc1` 32

Value lookup for inhibition at 1 µM; key = `OCCNc1cc(NCc2ccccn2)c2c(-c3ccccc3)csc2n1` 93

The values you see were collected from patent US7576212B2.
